# Tested on: S. aureus VRSA
# measurement-protocol: MIC, broth microdilution, vancomycin-resistant S. aureus (VRSA)
# Type: cell-based, Staphylococcus aureus
# condition-context: VRSA; ratio of MIC of vancomycin and MIC of analogue
Entries and their MIC-fold improvement vs. vancomycin values follow.
Quick one: just the number, no unit, thanks!

Below are worked cases with known answers.
CN[C@H](CC(C)C)C(=O)N[C@H]1C(=O)N[C@@H](CC(N)=O)C(=O)N[C@H]2C(=O)N[C@H]3C(=O)N[C@H](C(=O)N[C@H](C(=O)O)c4cc(O)cc(O)c4-c4cc3ccc4O)[C@H](O)c3ccc(c(Cl)c3)Oc3cc2cc(c3O[C@@H]2O[C@H](CO)[C@@H](O)[C@H](O)[C@H]2O[C@H]2C[C@](C)(N)[C@H](O)[C@H](C)O2)Oc2ccc(cc2Cl)[C@H]1O: 1
CN[C@H](CC(C)C)C(=O)N[C@H]1C(=O)N[C@@H](CC(N)=O)C(=O)N[C@H]2C(=O)N[C@H]3C(=O)N[C@H](C(=O)N[C@H](C(=O)NCCNC(=O)CC(c4ccccc4)c4ccccc4)c4cc(O)cc(O)c4-c4cc3ccc4O)[C@H](O)c3ccc(c(Cl)c3)Oc3cc2cc(c3O[C@@H]2O[C@H](CO)[C@@H](O)[C@H](O)[C@H]2O[C@H]2C[C@](C)(N)[C@H](O)[C@H](C)O2)Oc2ccc(cc2Cl)[C@H]1O: 32

# input GET MIC-fold improvement vs. vancomycin where system = S. aureus VRSA and item = `CN[C@H](CC(C)C)C(=O)N[C@H]1C(=O)N[C@@H](CC(N)=O)C(=O)N[C@H]2C(=O)N[C@H]3C(=O)N[C@H](C(=O)N[C@H](C(=O)NCC(=O)Nc4ccc(F)cc4F)c4cc(O)cc(O)c4-c4cc3ccc4O)[C@H](O)c3ccc(c(Cl)c3)Oc3cc2cc(c3O[C@@H]2O[C@H](CO)[C@@H](O)[C@H](O)[C@H]2O[C@H]2C[C@](C)(N)[C@H](O)[C@H](C)O2)Oc2ccc(cc2Cl)[C@H]1O`
# output 4

# input GET MIC-fold improvement vs. vancomycin where system = S. aureus VRSA and item = `CN[C@H](CC(C)C)C(=O)N[C@H]1C(=O)N[C@@H](CC(N)=O)C(=O)N[C@H]2C(=O)N[C@H]3C(=O)N[C@H](C(=O)N[C@H](C(=O)NCC(=O)Nc4ccc(Oc5ccccc5)cc4)c4cc(O)cc(O)c4-c4cc3ccc4O)[C@H](O)c3ccc(c(Cl)c3)Oc3cc2cc(c3O[C@@H]2O[C@H](CO)[C@@H](O)[C@H](O)[C@H]2O[C@H]2C[C@](C)(N)[C@H](O)[C@H](C)O2)Oc2ccc(cc2Cl)[C@H]1O`
# output 64

# input GET MIC-fold improvement vs. vancomycin where system = S. aureus VRSA and item = `CN[C@H](CC(C)C)C(=O)N[C@H]1C(=O)N[C@@H](CC(N)=O)C(=O)N[C@H]2C(=O)N[C@H]3C(=O)N[C@H](C(=O)N[C@H](C(=O)NCCNC(=O)/C=C/c4ccc(NS(=O)(=O)c5ccc(C)cc5)cc4)c4cc(O)cc(O)c4-c4cc3ccc4O)[C@H](O)c3ccc(c(Cl)c3)Oc3cc2cc(c3O[C@@H]2O[C@H](CO)[C@@H](O)[C@H](O)[C@H]2O[C@H]2C[C@](C)(N)[C@H](O)[C@H](C)O2)Oc2ccc(cc2Cl)[C@H]1O`
# output 256

# input GET MIC-fold improvement vs. vancomycin where system = S. aureus VRSA and item = `CN[C@H](CC(C)C)C(=O)N[C@H]1C(=O)N[C@@H](CC(N)=O)C(=O)N[C@H]2C(=O)N[C@H]3C(=O)N[C@H](C(=O)N[C@H](C(=O)NCCNC(=O)/C=C/c4ccc(Cl)cc4Cl)c4cc(O)cc(O)c4-c4cc3ccc4O)[C@H](O)c3ccc(c(Cl)c3)Oc3cc2cc(c3O[C@@H]2O[C@H](CO)[C@@H](O)[C@H](O)[C@H]2O[C@H]2C[C@](C)(N)[C@H](O)[C@H](C)O2)Oc2ccc(cc2Cl)[C@H]1O`
# output 256

# input GET MIC-fold improvement vs. vancomycin where system = S. aureus VRSA and item = `CN[C@H](CC(C)C)C(=O)N[C@H]1C(=O)N[C@@H](CC(N)=O)C(=O)N[C@H]2C(=O)N[C@H]3C(=O)N[C@H](C(=O)N[C@H](C(=O)NCC(=O)Nc4ccc(-c5cn(-c6ccccc6)nn5)cc4)c4cc(O)cc(O)c4-c4cc3ccc4O)[C@H](O)c3ccc(c(Cl)c3)Oc3cc2cc(c3O[C@@H]2O[C@H](CO)[C@@H](O)[C@H](O)[C@H]2O[C@H]2C[C@](C)(N)[C@H](O)[C@H](C)O2)Oc2ccc(cc2Cl)[C@H]1O`
# output 128
